# Tested on: SK-MEL-28 melanoma
# Assay Remarks: NCI tumour cell line growth inhibition, 48 h
Parameter: TGI. Scope: all listed entries.
Respond numerically; units are µM and should not be typed.

Molecule | TGI, µM
COc1cc(/C=C/c2cc(/C=C/c3ccc(O)c(OC)c3)n(-c3ccccc3)n2)ccc1O | 2.72

Q: Value lookup for TGI; key = `O=C1c2c(c3c4ccccc4n(CCCCCCBr)c3c3[nH]c4ccccc4c23)C(=O)N1O`
Ans: 15.7

Q: Form field: reported TGI of CC1CCC2(C(=O)O)CCC3(C)C(=CCC4C5(C)CC(O)C(O)C(C)(CO)C5C(O)CC43C)C2C1C (stereo not given)
Ans: 69

Q: Report TGI for `CCCCCCCCCCCC(=O)CC(=O)c1c(O)cccc1O` please.
Ans: 44.1
